- Tested on: mouse
- ASSAY_DETAILS: Antalgic action, mechanical stimulation method according to Haffner
- Assay type: in vivo
- SETTINGS: 100 mg/kg oral, after 1 hr
RESULT_TYPE: mean percent antalgia after 1 hr (%)
All answers are understood in %, so give the number only.

q: Name the value of mean percent antalgia after 1 hr reported for CC(=O)N1CC(c2ccccc2)c2ccsc2C1=O (stereo not shown) [Derivative n°17] when tested on mouse.
a: 65

q: Name the value of mean percent antalgia after 1 hr reported for O=C1c2ccsc2CCN1Cc1ccccc1 [Derivative n°2] when tested on mouse.
a: 65

q: Name the value of mean percent antalgia after 1 hr reported for CC(=O)N1CCc2sccc2C1=O [Derivative n°5] when tested on mouse.
a: 60

q: Name the value of mean percent antalgia after 1 hr reported for O=C1NCCc2sccc21 [Derivative n°7] when tested on mouse.
a: 76

q: Name the value of mean percent antalgia after 1 hr reported for COc1cc(COC(=O)C2Cc3sccc3C(=O)N2Cc2cc(OC)c(OC)c(OC)c2)cc(OC)c1OC (stereo not shown) [Derivative n°15] when tested on mouse.
a: 67

q: Name the value of mean percent antalgia after 1 hr reported for CC(=O)N1CCc2ccsc2C1=O [Derivative n°11] when tested on mouse.
a: 61

q: Name the value of mean percent antalgia after 1 hr reported for O=C1NCCc2ccsc21 [Derivative n°12] when tested on mouse.
a: 78
